assay: NCI Yeast Anticancer Drug Screen. Data for the bub3 strain (AID 167); settings: S. cerevisiae bub3 mutant strain, at 50.0 µM, active compounds read high
This is part of a sample that, as a whole, favours compounds with a hit. Of some 79,000 tested, about 15% had one in any assay. Calls of active or inactive are those of the source. No stated cut-off is given here; in the data, active means growth inhibition above about 70%; inactive means the rest.
Answer each item with its documented growth inhibition.

Completed entries (count: 3):
COMPOUND	growth inhibition
CC1([N+](=O)[O-])COP(=O)(NCC2CCCO2)OC1 (stereo not given)	0.35% (inactive)
CC1(C)N=C(N)N=C(N)N1c1ccc(OCCCCNC(=O)Nc2ccc(S(=O)(=O)F)cc2)c(Cl)c1	98.8% (active)
COc1cc(-c2[nH]ccc2Cl)oc1C1=C2N=C3C=C2C(C(C)C)C1CCCCCCCC3 (stereo not given)	88.3% (active)

Give growth inhibition for all compounds that follow.
1. CCN1CCC(O)(c2ccc(O)cc2)C(C(=O)c2ccc(O)cc2)C1 (stereo not given)
2. O=[N+]([O-])c1cccc2c([N+](=O)[O-])cccc12
3. OC(COc1cccc2ccccc12)CN(CCCl)CCCl (stereo not given)

stdout:
["13.3% (inactive)", "-0.7% (inactive)", "8.55% (inactive)"]

----------
assay: NCI Yeast Anticancer Drug Screen. Data for the mec2-1 strain (AID 157); details: S. cerevisiae mec2-1 strain, at 50.0 µM (retest, dose inferred, filed as 5.0)
This is part of a sample that, as a whole, favours compounds with a hit. Of some 79,000 tested, about 15% had one in any assay. Activity calls are given as the source filed them. No stated cut-off is given here; in the data, active means growth inhibition above about 70%; inactive means the rest.
I would appreciate it if you answered using one of these outcomes: active, inactive

MOLECULE	LABEL
C(=P(c1ccccc1)(c1ccccc1)c1ccccc1)[P+](c1ccccc1)(c1ccccc1)c1ccccc1.[Cl][Fe]([Cl])([Cl])[Br]	active
CCc1cc(C)cc2[n+]1CC=C2	active
CN1CCOC12CCC1(C)C(CCC3C4CCC(O)C4(C)CCC31)C2 (stereo not drawn)	inactive
ClC(CN1CCCCC1)C(Cl)c1ccccc1 (stereo not drawn)	inactive
CCC[CH2][Sn]1([CH2]CCC)[O]C(=O)c2cccc(OC)c2[O]1	active
CC1CCC2(OC1)OC1C(O)C3C4CCC5CC(OC6OC(CO)C(OC7OC(CO)C(O)C(OC8OCC(O)C(O)C8O)C7OC7OC(CO)C(O)C(OC8OC(CO)C(O)C(O)C8O)C7O)C(O)C6O)C(O)CC5(C)C4CCC3(C)C1C2C (stereo not drawn)	active
COc1cc(C2c3cc4c(cc3[C@@H](Nc3ccc([N+](=O)[O-])cc3)C3COC(=O)[C@H]23)OCO4)cc(OC)c1O (stereo partly drawn)	active
CC(=O)OC1CC[C@@]2(C)C(=CC[C@@H]3[C@@H]2CC[C@]2(C)C(OC(C)=O)[C@H](n4ccnc4)C[C@@H]32)C1 (stereo partly drawn)	inactive
[Cl][Sn]([Cl])([c]1ccccc1)[c]1ccccc1.c1ccc2nc(-c3ccc4ccccc4n3)ccc2c1	active
COc1c[c]([Hg][O]C(C)=O)c(OC)c(NC(=O)CC(C)=O)[c]1[Hg][O]C(C)=O	active

stdin: Could you check what this test reported for COc1ccccc1C(Cc1ccc(N2C(N)=NC(N)=NC2(C)C)cc1)C(=O)Nc1ccc(S(=O)(=O)F)cc1 (stereo not drawn) ?
stdout: inactive

stdin: Could you check what this test reported for COC1OC(CO)C(O)C(O)[CH]1[Hg][Cl] (stereo not drawn) ?
stdout: active

stdin: Could you check what this test reported for O=S(O)O.O=S(O)O.[Co].[NH2-].[NH2-].[NH2-].[NH2-] ?
stdout: inactive

stdin: Could you check what this test reported for O=c1cccc(C2CC(CO)C3CCCCN3C2)[nH]1 (stereo not drawn) ?
stdout: inactive

stdin: Could you check what this test reported for O=[N+]([O-])c1cc(-c2ccccc2)ccc1O ?
stdout: inactive

stdin: Could you check what this test reported for O=C(CBr)OC1CCCCC1 ?
stdout: active

stdin: Could you check what this test reported for CCOC(=O)C(c1ccsc1)P(=O)(OCC)OCC (stereo not drawn) ?
stdout: active

stdin: Could you check what this test reported for CCOP(=O)(O)C(Nc1ccc(N=Nc2ccccc2)cc1)c1ccc(C(Nc2ccc(N=Nc3ccccc3)cc2)P(=O)(O)OCC)cc1 (stereo not drawn) ?
stdout: inactive

----------
assay: NCI Yeast Anticancer Drug Screen. Data for the bub3 strain (AID 167); settings: S. cerevisiae bub3 mutant strain, at 50.0 µM (retest, dose inferred, filed as 5.0), active compounds read high
This is part of a sample that, as a whole, favours compounds with a hit. Of some 79,000 tested, about 15% had one in any assay.
MEASUREMENT TYPE: growth inhibition (%)
Answers are plain numbers, in %.

COMPOUND	REPORTED
O=C(CBr)OC1CCCCC1	97

Give growth inhibition for all compounds that follow.
1. NCCCN1CCN(CCCN2CC2)CC1
2. CCOP(=S)(OCC)SSSP(=S)(OCC)OCC

stdout:
[80, 84]

----------
Assay: NCI Yeast Anticancer Drug Screen. Data for the mec2-1 strain (AID 157)
Details: S. cerevisiae mec2-1 strain, at 50.0 µM (retest, dose inferred, filed as 5.0)
Description: Growth inhibition of yeast strains with defined genetic alterations is measured as a screen for potential anti-cancer activity. Selected strains with alterations in DNA damage repair or cell cycle control were exposed to compounds and growth inhibition was measured relative to vehicle treated controls. The strain used in this assay is mec2-1
This is part of a sample that, as a whole, favours compounds with a hit. Of some 79,000 tested, about 15% had one in any assay. Activity calls are given as the source filed them. No stated cut-off is given here; in the data, active means growth inhibition above about 70%; inactive means the rest.
I would appreciate it if you answered using one of these outcomes: True for active, False for inactive

Known results for compounds:
COMPOUND	LABEL
CC(=O)[CH-]C(C)=O.CC(=O)[CH-]C(C)=O.[O-]c1ccccc1.[O-]c1ccccc1.[Ti+4]	False
COc1cc(/C=C\[N+](=O)[O-])ccc1O	True
CN(C)c1ccc(N=Nc2cccc(C(=O)[O-])c2)cc1.CN(C)c1ccc(N=Nc2cccc(C(=O)[O-])c2)cc1.NC1CCCCC1N.O=[N+]([O-])O.[Pt+4]	True
C[N+](C)(C)CC1CCCc2ccccc2C1=O (stereo not given)	True
CC(C)CC[CH2][Pb]([CH2]CCC(C)C)([CH2]CCC(C)C)[O]C(=O)C(Cl)(Cl)Cl	True
CC(=O)[O][Pb]([O]C(C)=O)([O]C(C)=O)[c]1ccccc1	True

stdin: Could you check what this test reported for NCCNCCNCCNCCN (tested in a mixture with another compound) ?
stdout: False

----------
test: NCI Yeast Anticancer Drug Screen. Data for the mlh1 rad18 strain (AID 175); conditions: S. cerevisiae mlh1 rad18 strain growth inhibition; at 5.0 µM (retest, dose inferred, filed as 0.5)
Compounds without any hit were thinned out: in the full panel of roughly 79,000, 15% have a hit. The source made the active and inactive calls. Rule as the data show it: active = growth inhibition above about 70%; inactive = the rest.
I would appreciate it if you answered using one of these outcomes: label 1 = active, label 0 = inactive

Known results for compounds:
COMPOUND	LABEL
NS(=O)(=O)CCl.[Hg]	label 0
NC(=O)Nc1ccc([As](Sc2ccccc2C(=O)O)Sc2ccccc2C(=O)O)cc1	label 0
CCN1CCC(O)(c2ccc(Cl)cc2)C(C(=O)c2ccc(Cl)cc2)C1 (stereo not drawn)	label 0
O=C([CH-]C(=O)c1ccccc1)c1ccccc1.O=C([CH-]C(=O)c1ccccc1)c1ccccc1.O=C([CH-]C(=O)c1ccccc1)c1ccccc1.[Cl-].[Hf+4]	label 0
O=C([CH-]C(=O)c1ccccc1)c1ccccc1.O=C([CH-]C(=O)c1ccccc1)c1ccccc1.O=C([CH-]C(=O)c1ccccc1)c1ccccc1.[OH3+].[Y+3]	label 0

stdin: Could you check what this test reported for ClC(CN1CCCCC1)C(Cl)c1ccccc1 (stereo not drawn) ?
stdout: label 0

stdin: Could you check what this test reported for CCOc1c(Br)cc(/C=C(\C)[N+](=O)[O-])cc1OC ?
stdout: label 0

stdin: Could you check what this test reported for C/C1=C\[C@H](C)C[C@H](C)OC(=O)C[C@H](c2ccc(O)cc2)NC(=O)[C@@H](Cc2c(Br)[nH]c3ccccc23)N(C)C(=O)[C@H](C)NC(=O)[C@@H](C)C1 ?
stdout: label 1

----------
Experiment: NCI Yeast Anticancer Drug Screen. Data for the bub3 strain (AID 167)
Conditions: S. cerevisiae bub3 mutant strain, at 50.0 µM (retest, dose inferred, filed as 5.0), active compounds read high
Protocol: Growth inhibition of yeast strains with defined genetic alterations is measured as a screen for potential anti-cancer activity. Selected strains with alterations in DNA damage repair or cell cycle control were exposed to compounds and growth inhibition was measured relative to vehicle treated controls. The strain used in this assay is bub3
About 79,000 compounds went through this panel and 15% of them were active in at least one assay; those are over-represented in the sample as a whole.
Label FALSE if growth inhibition falls below 20%; label TRUE in every other case.

Known results for molecules:
MOLECULE	LABEL
CC(=O)[O-].O=[N+]([O-])c1ccc([O-])c(C=NCCN=Cc2cc([N+](=O)[O-])ccc2[O-])c1.[Mn+3]	TRUE
Cc1c(=O)n(O)c2ccccc2[n+]1[O-]	FALSE

stdin: I'd appreciate it if you could say whether O=C(N/N=C(/CCN1CCCC1)CC(c1ccccc1)c1c(O)c2ccccc2oc1=O)c1ccncc1 (stereo unspecified) has growth inhibition at least equal to 20%.
stdout: FALSE

stdin: I'd appreciate it if you could say whether CC(Cc1ccc2c(c1)OCO2)NN (stereo unspecified) has growth inhibition at least equal to 20%.
stdout: TRUE

stdin: I'd appreciate it if you could say whether Nc1nc(N)c(-c2ccc(Cl)c(Cl)c2)c(CCc2ccc(CNC(=O)c3cccc(S(=O)(=O)F)c3)cc2)n1 has growth inhibition at least equal to 20%.
stdout: TRUE

stdin: I'd appreciate it if you could say whether CC12CCC3C(CC=C4CC(SC(=N)N)CCC43C)C1CCC2=O (stereo unspecified) has growth inhibition at least equal to 20%.
stdout: TRUE

stdin: I'd appreciate it if you could say whether NC(=O)c1ccc(C(=O)Nc2ccc([As](=O)(O)O)cc2)cc1 has growth inhibition at least equal to 20%.
stdout: FALSE

stdin: I'd appreciate it if you could say whether O=C1CCC(=O)N1SC(Cl)(Cl)Cl has growth inhibition at least equal to 20%.
stdout: FALSE

stdin: I'd appreciate it if you could say whether CC([CH2][Hg][Cl])c1ccccc1 (stereo unspecified) has growth inhibition at least equal to 20%.
stdout: TRUE

stdin: I'd appreciate it if you could say whether CC1CCCC[N-]1.CC1CCCC[N-]1.N#C[S-].N#C[S-].[Cd] (stereo unspecified) has growth inhibition at least equal to 20%.
stdout: TRUE

stdin: I'd appreciate it if you could say whether O=[N+]([O-])c1ccc(CS(=O)(=O)C(Cl)Cl)o1 has growth inhibition at least equal to 20%.
stdout: TRUE
